target: T1, cynomolgus monkey GPVI on the cell surface of cynomolgus monkey platelets (cynomolgus monkey); experiment: FACS on washed cynomolgus platelets from PRP (one donor), PE-conjugated detection antibody, median fluorescence
T1 construct: whole, on cells; also called GPVI on cynomolgus monkey platelets
Experimental readout: EC50 (read off the curve)

Ask: Param item = Fab #1 comprising a modified heavy chain constant region (Fab, V domains shown, Human Fab from the Ylanthia library; produced in HKB11 cells; also called Fab #1 mod; HC) VH: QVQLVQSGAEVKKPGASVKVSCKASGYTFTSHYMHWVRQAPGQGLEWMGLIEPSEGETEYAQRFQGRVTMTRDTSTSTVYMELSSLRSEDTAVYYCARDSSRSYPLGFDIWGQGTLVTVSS VL: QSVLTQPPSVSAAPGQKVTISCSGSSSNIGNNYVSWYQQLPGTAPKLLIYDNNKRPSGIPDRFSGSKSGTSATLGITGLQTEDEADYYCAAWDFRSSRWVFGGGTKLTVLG ; retrieve measured EC50 (read off the curve).
Reply: ~0.4 µg/mL
